# Tgt: Cyclooxygenase (Bos taurus, UniProt O62664+O62698)
# Sequence (O62664 whole entry): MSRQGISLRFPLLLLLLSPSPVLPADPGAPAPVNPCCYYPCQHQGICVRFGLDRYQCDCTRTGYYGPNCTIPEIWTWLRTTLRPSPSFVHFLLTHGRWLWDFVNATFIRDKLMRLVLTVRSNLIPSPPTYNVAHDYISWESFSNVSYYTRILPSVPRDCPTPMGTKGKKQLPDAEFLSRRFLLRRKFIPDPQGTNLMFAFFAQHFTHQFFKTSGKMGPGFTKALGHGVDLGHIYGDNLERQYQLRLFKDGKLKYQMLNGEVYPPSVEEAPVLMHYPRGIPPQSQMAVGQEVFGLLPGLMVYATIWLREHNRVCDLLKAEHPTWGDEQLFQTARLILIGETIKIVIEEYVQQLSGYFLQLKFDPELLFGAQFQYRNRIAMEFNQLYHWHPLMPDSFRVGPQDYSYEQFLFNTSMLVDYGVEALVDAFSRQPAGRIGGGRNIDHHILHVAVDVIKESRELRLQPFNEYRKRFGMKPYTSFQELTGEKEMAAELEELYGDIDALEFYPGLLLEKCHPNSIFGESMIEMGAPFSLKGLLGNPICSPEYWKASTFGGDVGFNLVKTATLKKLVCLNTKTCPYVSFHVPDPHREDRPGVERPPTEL
# Sequence (O62698 whole entry): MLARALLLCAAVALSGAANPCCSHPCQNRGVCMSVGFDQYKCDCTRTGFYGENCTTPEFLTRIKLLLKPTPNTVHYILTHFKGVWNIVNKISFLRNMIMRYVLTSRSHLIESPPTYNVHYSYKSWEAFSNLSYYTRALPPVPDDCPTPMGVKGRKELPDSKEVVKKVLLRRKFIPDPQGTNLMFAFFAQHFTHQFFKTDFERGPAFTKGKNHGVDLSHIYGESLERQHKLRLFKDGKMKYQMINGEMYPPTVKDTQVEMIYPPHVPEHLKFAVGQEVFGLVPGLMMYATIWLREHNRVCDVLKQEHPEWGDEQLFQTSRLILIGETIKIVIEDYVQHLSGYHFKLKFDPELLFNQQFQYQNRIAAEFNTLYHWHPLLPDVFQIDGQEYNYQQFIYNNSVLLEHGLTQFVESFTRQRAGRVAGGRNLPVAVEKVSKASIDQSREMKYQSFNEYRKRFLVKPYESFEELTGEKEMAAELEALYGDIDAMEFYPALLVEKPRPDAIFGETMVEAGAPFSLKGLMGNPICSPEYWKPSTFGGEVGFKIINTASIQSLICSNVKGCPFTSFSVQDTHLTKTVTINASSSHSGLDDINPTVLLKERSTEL
Observed property: IC50 (nM)
One number for each entry, in nM.

INSERT INTO assay_data (smi, measurement_units, experimental_value) VALUES
  ('Cc1ccc(C(=O)c2cccc(CC(=O)[O-])c2N)c(C)c1.[Na+]', 'nM', 100),
  ('Nc1c(CC(=O)[O-])cccc1C(=O)c1ccc(C(F)(F)F)cc1.[Na+]', 'nM', 1000),
  ('Cc1ccc(C(=O)c2ccccc2)c(N)c1CC(=O)[O-].[Na+]', 'nM', 3000);

Supply measured IC50 of COc1cc(CC(=O)[O-])c(N)c(C(=O)c2ccc(Cl)cc2)c1.[Na+] in your reply.
12000

====

# Tested on: Rattus norvegicus
# Experimental protocol: Percent change in average volume of pleural fluid at a dose 4 mg/kg of indomethacin and 5-h response is evaluated by Evans blue-carrageenan induced pleural effusion assay
# Assay type: functional
What Change was measured for each of the following?
Numbers only, in %.

# batch size: 2; output Change per entry
1. COc1ccc(C(=O)c2cccc(CC(=O)[O-])c2N)cc1.[Na+]
2. Nc1c(CC(=O)[O-])cccc1C(=O)c1ccccc1.[Na+] [AMFENAC SODIUM]

[-35, -33]

For every item in the list below, what is its measured Change?
1. Nc1c(CC(=O)[O-])cc(Cl)cc1C(=O)c1ccc(I)cc1.[Na+]
2. Cc1ccc(C(=O)c2ccccc2)c(N)c1CC(=O)[O-].[Na+]
3. Nc1c(CC(=O)[O-])cccc1C(=O)c1ccc(F)cc1.[Na+]
4. Nc1c(CC(=O)[O-])cccc1C(=O)c1ccc(Cl)cc1.[Na+]
5. Nc1c(CC(=O)[O-])ccc(Cl)c1C(=O)c1ccccc1.[Na+]

1. -33
2. -38
3. -35
4. -33
5. -35

Below are some compounds; for each one, tell me its Change.
1. Cc1ccc(C(=O)c2cc(F)cc(CC(=O)[O-])c2N)cc1.[Na+]
2. Nc1c(CC(=O)[O-])cccc1C(=O)c1ccc(Cl)cc1Cl.[Na+]
3. Nc1c(CC(=O)[O-])cc(F)cc1C(=O)c1ccc(Cl)cc1.[Na+]
4. CSc1ccc(C(=O)c2cccc(CC(=O)[O-])c2N)cc1.[Na+]
5. CSc1ccc(C(=O)c2cc(F)cc(CC(=O)[O-])c2N)cc1.[Na+]
6. COc1cc(CC(=O)[O-])c(N)c(C(=O)c2ccc(Br)cc2)c1.[Na+]
7. CSc1ccc(C(=O)c2cc(C)cc(CC(=O)[O-])c2N)cc1.[Na+]
8. Nc1c(CC(=O)[O-])cccc1C(=O)c1ccccc1Cl.[Na+]

1. -36
2. -33
3. -34
4. -30
5. -33
6. -25
7. -42
8. -33

Look up Change for the entries below, preserving their order.
1. Nc1c(CC(=O)[O-])cccc1C(=O)c1ccc(-c2ccccc2)cc1.[Na+]
2. Cc1cc(CC(=O)[O-])c(N)c(C(=O)c2ccc(Cl)cc2)c1.[Na+]
3. COc1cc(CC(=O)[O-])c(N)c(C(=O)c2ccc(Cl)cc2)c1.[Na+]

1. -36
2. -35
3. -37

====

Below are log10 IC50 values recorded for Cyclooxygenase (Bos taurus, UniProt O62664+O62698).
Remember, log10 of IC50, in µM.

Worked cases, log10 IC50 given:
INSERT INTO assay_data (compound, experimental_value) VALUES
  ('Nc1c(CC(=O)[O-])cccc1C(=O)c1ccc(Cl)c(Cl)c1.[Na+]', 1.70),
  ('Cc1cc(CC(=O)[O-])c(N)c(C(=O)c2ccc(Cl)cc2)c1.[Na+]', -0.15);

Quick one: give me log10 IC50 for each item below, same order please.
1. Cc1cc(CC(=O)[O-])c(N)c(C(=O)c2ccc(F)cc2)c1.[Na+]
2. Nc1c(CC(=O)[O-])cc(F)cc1C(=O)c1ccc(Cl)cc1Cl.[Na+]

1. 1.23
2. -1.00

====

Please go through the items and note down their Gastric toxicity.
# Tested on: Rattus norvegicus
# Experimental protocol: Acute gastric toxicity (single oral dose) in male fasted rats
# Assay type: organism-based, Stomach
# Conditions used: in vivo
Numbers only.

INSERT INTO assay_data (compound, tgt, experimental_value) VALUES
  ('COc1ccc2c(c1)c(CC(=O)O)c(C)n2C(=O)c1ccc(Cl)cc1 [INDOMETHACIN]', 'Rattus norvegicus', 1),
  ('Nc1c(CC(=O)[O-])cc(Cl)cc1C(=O)c1ccc(Br)cc1Cl.[Na+]', 'Rattus norvegicus', 1.2),
  ('Cc1cc(CC(=O)[O-])c(N)c(C(=O)c2ccc(Br)cc2)c1.[Na+]', 'Rattus norvegicus', 1.2);

Identify measured Gastric toxicity corresponding to Nc1c(CC(=O)[O-])cccc1C(=O)c1ccc(Br)cc1.Nc1c(CC(=O)[O-])cccc1C(=O)c1ccc(Br)cc1.O.O.O.[Na+].[Na+] [BROMFENAC SODIUM]
1.4

====

# Tested on: Rattus norvegicus
# Experimental protocol: Percent change in average volume of pleural fluid at a dose 4 mg/kg of indomethacin and 5-h response is evaluated by Evans blue-carrageenan induced pleural effusion assay
# Format: functional
Kindly state Change for each of the entries shown.
Answers are plain numbers, in %.

Some compounds with recorded Change:
INSERT INTO assay_data (compound, measurement_units, experimental_value) VALUES
  ('Cc1ccc(C(=O)c2cccc(CC(=O)[O-])c2N)c(C)c1.[Na+]', '%', -40),
  ('Cc1ccc(C(=O)c2cccc(CC(=O)[O-])c2N)cc1.[Na+]', '%', -39);

Identify measured Change associated with Nc1c(CC(=O)[O-])cccc1C(=O)c1ccc(Br)cc1.Nc1c(CC(=O)[O-])cccc1C(=O)c1ccc(Br)cc1.O.O.O.[Na+].[Na+] [BROMFENAC SODIUM]
-41

====

# Tested on: Mus musculus
# Experimental protocol: Oral analgesic activity was determined in mice by the acetylcholine-induced abdominal constriction assay upon ip administration of acetylcholine bromide 5 hours following oral administration
# Type: functional
# Conditions used: Abdomen
Observed property: ED50

Quick batch: ED50 for everything below.
1. Nc1c(CC(=O)[O-])cccc1C(=O)c1ccc(Cl)cc1Cl.[Na+]
2. CSc1ccc(C(=O)c2cc(F)cc(CC(=O)[O-])c2N)cc1.[Na+]

1. > 0.3 mg/kg
2. > 1 mg/kg

Report ED50, nothing else, for this compound: Nc1c(CC(=O)[O-])cccc1C(=O)c1ccccc1.[Na+] [AMFENAC SODIUM]
> 3 mg/kg
